assay: Cmax in rat at 1 mg/kg, po or 0.5 mg/kg, iv; type: ADME, organism-based; set-up: dose 1 mg/kg, route po; conditions: in vivo
MEASUREMENT TYPE: Cmax (ng/mL)

Worked examples follow.
O=S1(=Nc2ccc(-c3ccc(-c4nc5cc(O[C@@H]6CO[C@H]7[C@@H]6OC[C@H]7O)[nH]c5cc4F)cc3)cc2)CCCC1: 43
CS(C)(=O)=Nc1ccc(-c2ccc(-c3nc4cc(O[C@@H]5CO[C@H]6[C@@H]5OC[C@H]6O)[nH]c4cc3F)cc2)nc1: 44.8

a: CS(C)(=O)=Nc1ccc(-c2ccc(-c3nc4cc(O[C@@H]5CO[C@H]6[C@@H]5OC[C@H]6O)[nH]c4cc3F)cc2)cc1
b: CS(C)(=O)=Nc1ccc(-c2ccc(-c3nc4cc(O[C@@H]5CO[C@H](CO)C5)[nH]c4cc3F)cc2)cc1
Req: Lower value for measured Cmax? Options: a , b Kindly give the label for the entry you pick.
Resp: a
(a: 68.7 ng/mL, b: 130 ng/mL)
